Each entry below carries its reported TGI.
# System: SR leukemia
# experiment: NCI tumour cell line growth inhibition, 48 h

Measured TGI, N=C(N)C1CN(CCCCCCCCCCN2CC(C(=N)N)C(=O)NC2=O)C(=O)NC1=O (stereo not given) : > 10 µM

Entry C=CCN=c1sc2c(n1NC(=O)c1cc3ccc1CCc1ccc(cc1)CC3)C(=O)c1ccccc1C2=O — recorded TGI = > 100 µM

According to the records, this compound Brc1ccc(C2CC(c3cccc4ccccc34)=Nc3ccccc3S2)cc1 (stereo not given) displays TGI of > 100 µM

The compound listed as CCOC(=O)c1nn2c(nc1=O)sc1ccc3ccccc3c12 has a reported TGI of > 100 µM

Please fill in: TGI reported for Fc1ccc(C2CC(c3cccc(Nc4ccncc4)c3)=NN2c2ccc(Cl)cc2)cc1 (stereo not given) = 4.23 µM

====

# System: HT29 colon
# experiment: NCI tumour cell line growth inhibition, 48 h; in the data active = GI50 below about 0.43 µM; inactive = the rest
Respond with a class label; see class 1 = active, class 0 = inactive

Worked examples follow.
molecule: COC12C=C/C(=C(/C(=O)OCc3cncnc3)C(=O)CCCCCCCCC3(OC)C=C/C(=C(/C(=O)OCc4cncnc4)C(=O)CCCCCCCC1)O3)O2
group label: class 1
//
molecule: N.N.N.N.N.NC(=O)c1nn[n-]n1.[Cl-].[Co+3]
group label: class 0
//
molecule: Fc1ccc(C2CC(c3cccc(Nc4ccncc4)c3)=NN2c2ccc(Cl)cc2)cc1 (stereo not drawn)
group label: class 0
//
molecule: C[C@@]1(C(=O)O)CCC[C@]2(C)C1CC[C@@]13CC(=O)[C@@](CO)(CC[C@]12O)C3 (stereo partly drawn)
group label: class 0
//
molecule: N#Cc1ccc(OCc2nc(N)nc(N)c2-c2ccc(Cl)c(Cl)c2)cc1
group label: class 0

Problem: So what was the verdict on CN(CCO)CC[C@H](CSc1ccccc1)Nc1ccc(S(=O)(=O)NC(=O)c2ccc(N3CCC([C@@H](O)c4ccccc4-c4ccc(Cl)cc4)CC3)cc2)cc1S(=O)(=O)C(F)(F)F in this test?
Solution: class 0

Problem: Kindly provide the recorded test outcome for the following molecule: CCN(Cc1ccc(Cl)cc1)c1ccc(CO)c(Cl)c1
Solution: class 0

Problem: Hey, what did the test say about CCN1C(=O)N(CC)C2C1NN=c1s/c(=C\c3cccc(F)c3)c(=O)n12 (stereo not drawn) ?
Solution: class 1

====

Attribute: TGI
# System: PC-3 prostate
# experiment: NCI tumour cell line growth inhibition, 48 h

compound: CCOC(=O)c1nnsc1NC(=O)Nc1ccc(Cc2ccc(NC(=O)Nc3snnc3C(=O)OCC)cc2)cc1
result: > 100 µM
//
compound: COC(=O)/C=C\COCC1C2CCC(=O)C21 (stereo unspecified)
result: > 25 µM
//
compound: O=c1[nH]c(=O)c2cn[nH]c2[nH]1
result: > 100 µM
//
compound: COC(=O)C1CC23CCCN4CCC5(c6ccccc6N(C=O)C15CC2)C43 (stereo unspecified)
result: > 100 µM

The value of TGI measured for the compound Cc1ccc([N+](=O)[O-])cc1S(=O)(=O)Nc1ccc(C2=NOC(c3ccco3)C2)cc1 (stereo unspecified) turned out to be 40.5 µM

Entry Cc1cc2c(cc1Cl)SC(NNC(=O)c1ccco1)=NS2(=O)=O ; TGI = > 10 µM

Reported TGI for O=C1C(Cl)=C(Nc2cccc(F)c2)C(=O)N1Cc1ccc(Cl)cc1 was 4.53 µM

What the record says about O=C1CSC(=S)N1 : TGI is > 100 µM

The compound listed as O=c1ccn2n1Cc1ccccc1C2 shows TGI equal to > 100 µM

====

# System: MOLT-4 leukemia
# experiment: NCI tumour cell line growth inhibition, 48 h; in the data active = GI50 below about 0.43 µM; inactive = the rest
Return exactly one item of class 1 (active), class 0 (inactive)

Consider the worked cases shown below.
molecule: C[C@@]1(C(=O)O)CCC[C@]2(C)C1CC[C@@]13CC(=O)[C@@](CO)(CC[C@]12O)C3 (stereo not given in full)
group label: class 0
//
molecule: COc1ccc2[nH]cc(-c3ccc(-c4c[nH]c5ccc(OC)cc45)s3)c2c1
group label: class 0

Problem: What call does the record list for CCN1C(=O)N(CC)C2C1NN=c1s/c(=C\c3cccc(F)c3)c(=O)n12 (stereo not given) ?
Solution: class 1

Problem: GET /call?item= NS(=O)(=O)c1ccc(-n2nc(-c3ccc(Cl)cc3)cc2-c2cc(O)ccc2O)cc1 returns the recorded outcome of this test.
Solution: class 0

Problem: How did this test come out for CCOC(=O)c1c(C)nc2c(c1N)CC(=O)N2Cc1ccc(OC)cc1 ?
Solution: class 0

====

# System: A498 renal
# experiment: NCI tumour cell line growth inhibition, 48 h
Rule: class 1 for TGI not less than 50 µM, class 0 for anything less.

Past entries and their recorded results:
compound: Fc1ccc(C2CC(c3cccc(Nc4ccncc4)c3)=NN2c2ccc(Cl)cc2)cc1 (stereo not given)
group label: class 0
--
compound: CC1=C(c2ccccc2)C(c2ccccc2)=C(c2ccccc2)C2(c3ccccc3)C(=O)C(C)CN12 (stereo not given)
group label: class 1

Problem: // inclusive: TGI at least 50 µM? input: COc1ccc(/C=C2\CCC(CNc3ccc(S(N)(=O)=O)cc3)C2=O)cc1 (stereo not given)
Solution: class 1

Problem: Is reported TGI greater than or equal to 50 µM here: CC1=NN(c2cccc(Cl)c2)C(=N/c2nc3ccccc3s2)/C1=C\c1ccc(Cl)cc1
Solution: class 0

Problem: Determine whether this compound has TGI no lower than 50 µM: C[C@@]1(O)C[C@@H](N2C(=O)O[C@@H](c3ccccc3)[C@H]2c2ccccc2)[C@@H]1COCc1ccccc1
Solution: class 1

Problem: Decide: is the reported value of TGI for O/N=C1/C(=C/c2ccc3c(c2)OCO3)CCCC1C(NO)c1ccc2c(c1)OCO2 (stereo not given) equal to or greater than 50 µM?
Solution: class 1

Problem: Entry O=C(Oc1cccc(F)c1OC(=O)c1cccc(O)c1)c1cccc(O)c1 : is its TGI no less than 50 µM?
Solution: class 1

====

# Test system: MOLT-4 leukemia
# experiment: NCI tumour cell line growth inhibition, 48 h
Each item that follows carries a reported TGI.

These solved cases illustrate the format of a correct answer.
molecule: CCOC(=O)c1nn2c(nc1=O)sc1ccc3ccccc3c12
result: > 100 µM
//
molecule: O=C1CC(O)CC(=O)C1=C(O)CCCCCCCCCCc1ccccc1 (stereo not given)
result: > 100 µM
//
molecule: NS(=O)(=O)c1ccc(-n2nc(-c3ccc(Cl)cc3)cc2-c2cc(O)ccc2O)cc1
result: > 100 µM
//
molecule: COC(=O)C1CC2CCC1(O[Si](C(C)C)(C(C)C)C(C)C)C(O)C2 (stereo not given)
result: 30.1 µM
//
molecule: Cc1ccc([N+](=O)[O-])cc1S(=O)(=O)Nc1ccc(C2=NOC(c3ccco3)C2)cc1 (stereo not given)
result: 46.6 µM

Sure, the documented TGI for COc1cc(Br)c(C=Nc2cccc3cc(OC)c(OC)cc23)cc1OC is > 100 µM

Just so you know, measured TGI for O=C1NCC(CSc2nc3cc(C4CCCc5c4[nH]c4ccccc54)ccc3o2)N1 (stereo not given) came out at > 100 µM

Per the record, COc1ccc(/C=N/N=C(\N)NO)cc1O has TGI of > 100 µM

Query O/N=C1/C(=C/c2ccc3c(c2)OCO3)CCCC1C(NO)c1ccc2c(c1)OCO2 (stereo not given) yields TGI of 42.5 µM

Consider Cc1cc(-c2cccc3ccccc23)c(C#N)c(=S)n1C1OC(CO)C(O)C(O)C1O (stereo not given) . Its measured TGI is > 100 µM

====

Quick reference for TGI among some compounds
# System: MDA-MB-231 breast
# experiment: NCI tumour cell line growth inhibition, 48 h

Sample records with TGI:
compound: C/C=C(\C)C(=O)NC1=CC[C@@]2(C)C(=CCC3C2CC[C@@]2(C)C3CC[C@@H]2C(C)N(C)C)C1=O (stereo partly specified)
result: 9.99 µM
//
compound: COc1ncnc2c(-c3ccccc3)cn(COCc3ccccc3)c12
result: > 100 µM

Simply: Cc1ccc(C2=Nn3c(nc4sc(C)c(C)c4c3=O)SC2)cc1 , MDA-MB-231 breast, TGI = > 100 µM

// TGI (MDA-MB-231 breast) for N#Cc1ccc(OCc2nc(N)nc(N)c2-c2ccc(Cl)c(Cl)c2)cc1 = > 100 µM

Bench note, MDA-MB-231 breast: entry Cc1ccc([N+](=O)[O-])cc1S(=O)(=O)Nc1ccc(C2=NOC(c3ccco3)C2)cc1 (stereo unspecified) , its TGI = 33.1 µM

Considering CC[C@@]1(O)C(=O)OCc2c1cc1n(c2=O)Cc2c-1nc1ccccc1c2/C=N\NC(=O)C(N)CO (stereo partly specified) , its TGI with MDA-MB-231 breast was recorded as > 100 µM

Form field TGI for item CN1CCc2c3n(c4cc(Br)ccc24)[C@H](O)CCCC31 (stereo partly specified) on MDA-MB-231 breast: 4.38 µM

GET /values?item= Cc1c(C)c(C)c(-n2c(=O)n(C)c(=O)n2-n2c(=O)n(C)c(=O)n2-c2c(C)c(C)c(C)c(C)c2C)c(C)c1C &system= MDA-MB-231 breast returns TGI: > 100 µM

Form: item C[C@]12CC[C@@H]3c4ccc(O)cc4CC[C@H]3[C@@H]1CC[C@@H]2OP(=O)(O)O ; test system MDA-MB-231 breast; TGI: > 100 µM

Summary: CCOC(=O)c1cc(=O)c2ccnc3c2n1CCS3 , MDA-MB-231 breast, TGI = > 100 µM

# CN1CCN(C(=S)N(C(=O)c2ccc(Cl)cc2)c2ccccc2)CC1 with MDA-MB-231 breast: TGI is > 100 µM

All values here come from PubChem BioAssay (NCI).
